Item-by-item account of MIC
tested on: Escherichia coli; experiment: Synergistic antibacterial activity against wild type Escherichia coli BW25113 assessed as levofloxacin MIC at 16 microg/ml incubated for 18 hrs by broth dilution assay; assay type: functional; conditions: dose 16 µg/ml
Give me the value, and tack the unit on after it.

smiles_notation=CC1(C)CCc2c(C(=O)N3CCOCC3)cc3c(OCCSc4ccc([N+](=O)[O-])cc4)cccc3c2O1 measurement_kind=MIC reading="0.032 µg/mL"

### Prompt Quick one: MIC for CC1(C)CCc2c(C(=O)N3CCOCC3)cc3c(OCCCSc4ccc(N)cc4)cccc3c2O1 ?
### Response 0.008 µg/mL

### Prompt Please answer likewise for CC1(C)CCc2c(C(=O)N3CCOCC3)cc3c(OCCCOc4cccc(C(=O)O)c4)cccc3c2O1
### Response 0.016 µg/mL

* * *

tested on: Escherichia coli; test: Synergistic antibacterial activity against wild type Escherichia coli BW25113 assessed as minocycline MIC at 64 microg/ml incubated for 18 hrs by broth dilution assay; assay type: functional; details: dose 64 µg/ml
Peptide text beside a SMILES is read from it.
measurement.kind: MIC
Give me the value, and tack the unit on after it.

molecule=CC1(C)CCc2c(C(=O)N3CCOCC3)cc3c(OCCSc4ccc([N+](=O)[O-])cc4)cccc3c2O1 measurement_kind=MIC reading="1 µg/mL"
molecule=CC1(C)CCc2c(C(=O)N3CCOCC3)cc3c(OCCN4CCN(c5ccccc5)CC4)cccc3c2O1 measurement_kind=MIC reading="2 µg/mL"
molecule="N=C(N)NCCC[C@H](NC(=O)[C@@H](N)Cc1ccccc1)C(=O)Nc1ccc2ccccc2c1 [PABETAN] (HELM PEPTIDE1{F.R.[c1ccc2cc(N[*:1])ccc2c1]}$$$$V2.0)" measurement_kind=MIC reading="0.5 µg/mL"

### Prompt Quick one: MIC for CC1(C)CCc2c(C(=O)N3CCOCC3)cc3c(OCCCSc4ccc(N)cc4)cccc3c2O1 ?
### Response 1 µg/mL

### Prompt Please answer likewise for CC1(C)CCc2c(C(=O)N3CCOCC3)cc3c(OCCCOc4cccc(C(=O)O)c4)cccc3c2O1
### Response 1 µg/mL

### Prompt Please answer likewise for CC1(C)CCc2c(C(=O)N3CCOCC3)cc3c(OCCOc4ccc([N+](=O)[O-])cc4)cccc3c2O1
### Response 2 µg/mL

### Prompt Please answer likewise for COc1ccc(OCCCOc2cccc3c4c(c(C(=O)N5CCOCC5)cc23)CCC(C)(C)O4)cc1
### Response 1 µg/mL

* * *

test system: Escherichia coli; experiment: Synergistic antibacterial activity against wild type Escherichia coli BW25113 assessed as erythromycin MIC at 16 microg/ml incubated for 18 hrs by broth dilution assay; type: functional; details: dose 16 µg/ml
Peptide text beside a SMILES is read from it.
measurement.kind: MIC (µg/mL)
Report only the number, with the unit µg/mL understood.

Check out these entries, answers already filled in.
molecule=CC1(C)CCc2c(C(=O)N3CCOCC3)cc3c(OCCCOc4cccc(C(=O)O)c4)cccc3c2O1 measurement_kind=MIC reading=32
molecule=COc1ccc(OCCCOc2cccc3c4c(c(C(=O)N5CCOCC5)cc23)CCC(C)(C)O4)cc1 measurement_kind=MIC reading=32

### Prompt Quick one: MIC for CC1(C)CCc2c(C(=O)N3CCOCC3)cc3c(OCCN4CCN(c5ccccc5)CC4)cccc3c2O1 ?
### Response 32

### Prompt Please answer likewise for CC1(C)CCc2c(C(=O)N3CCOCC3)cc3c(OCCSc4ccc([N+](=O)[O-])cc4)cccc3c2O1
### Response 16

### Prompt Please answer likewise for CC1(C)CCc2c(C(=O)N3CCOCC3)cc3c(OCCOc4ccc([N+](=O)[O-])cc4)cccc3c2O1
### Response 64

### Prompt Please answer likewise for N=C(N)NCCC[C@H](NC(=O)[C@@H](N)Cc1ccccc1)C(=O)Nc1ccc2ccccc2c1 [PABETAN] (HELM PEPTIDE1{F.R.[c1ccc2cc(N[*:1])ccc2c1]}$$$$V2.0)
### Response 8

### Prompt Please answer likewise for CC1(C)CCc2c(C(=O)N3CCOCC3)cc3c(OCCCSc4ccc(N)cc4)cccc3c2O1
### Response 64

* * *

test system: Escherichia coli; assay: Synergistic antibacterial activity against wild type Escherichia coli BW25113 assessed as erythromycin MIC at 64 microg/ml incubated for 18 hrs in presence of colistin by broth dilution assay; format: functional; settings: dose 64 µg/ml
Item-by-item account of MIC
Report only the number, with the unit µg/mL understood.

Check out these entries, answers already filled in.
smiles_notation=CC1(C)CCc2c(C(=O)N3CCOCC3)cc3c(OCCOc4ccc([N+](=O)[O-])cc4)cccc3c2O1 unit_tag=µg/mL reading=8
smiles_notation=CC1(C)CCc2c(C(=O)N3CCOCC3)cc3c(OCCSc4ccc([N+](=O)[O-])cc4)cccc3c2O1 unit_tag=µg/mL reading=4
smiles_notation=CC1(C)CCc2c(C(=O)N3CCOCC3)cc3c(OCCCOc4cccc(C(=O)O)c4)cccc3c2O1 unit_tag=µg/mL reading=4
smiles_notation=CC1(C)CCc2c(C(=O)N3CCOCC3)cc3c(OCCCSc4ccc(N)cc4)cccc3c2O1 unit_tag=µg/mL reading=8

Now consider the entry below.
### Prompt Quick one: MIC for COc1ccc(OCCCOc2cccc3c4c(c(C(=O)N5CCOCC5)cc23)CCC(C)(C)O4)cc1 ?
### Response 16

* * *

test system: Escherichia coli; experiment: Synergistic antibacterial activity against wild type Escherichia coli BW25113 assessed as levofloxacin MIC at 8 microg/ml incubated for 18 hrs in presence of colistin by broth dilution assay; type: functional; conditions: dose 8 µg/ml
Item-by-item account of MIC
Report only the number, with the unit µg/mL understood.

smiles_notation=CC1(C)CCc2c(C(=O)N3CCOCC3)cc3c(OCCOc4ccc([N+](=O)[O-])cc4)cccc3c2O1 unit_tag=µg/mL reading=0.032
smiles_notation=CC1(C)CCc2c(C(=O)N3CCOCC3)cc3c(OCCCSc4ccc(N)cc4)cccc3c2O1 unit_tag=µg/mL reading=0.032
smiles_notation=CC1(C)CCc2c(C(=O)N3CCOCC3)cc3c(OCCN4CCN(c5ccccc5)CC4)cccc3c2O1 unit_tag=µg/mL reading=0.032
smiles_notation=CC1(C)CCc2c(C(=O)N3CCOCC3)cc3c(OCCCOc4cccc(C(=O)O)c4)cccc3c2O1 unit_tag=µg/mL reading=0.016
smiles_notation=COc1ccc(OCCCOc2cccc3c4c(c(C(=O)N5CCOCC5)cc23)CCC(C)(C)O4)cc1 unit_tag=µg/mL reading=0.016

### Prompt Quick one: MIC for CC1(C)CCc2c(C(=O)N3CCOCC3)cc3c(OCCSc4ccc([N+](=O)[O-])cc4)cccc3c2O1 ?
### Response 0.032

* * *

system: Escherichia coli; experiment: Synergistic antibacterial activity against wild type Escherichia coli BW25113 assessed as erythromycin MIC at 128 microg/ml incubated for 18 hrs by broth dilution assay; assay type: functional; details: dose 128 µg/ml
Peptide text beside a SMILES is read from it.
Item-by-item account of MIC
Report only the number, with the unit µg/mL understood.

### Prompt Quick one: MIC for COc1ccc(OCCCOc2cccc3c4c(c(C(=O)N5CCOCC5)cc23)CCC(C)(C)O4)cc1 ?
### Response 8

### Prompt Please answer likewise for CC1(C)CCc2c(C(=O)N3CCOCC3)cc3c(OCCCOc4cccc(C(=O)O)c4)cccc3c2O1
### Response 16

### Prompt Please answer likewise for CC1(C)CCc2c(C(=O)N3CCOCC3)cc3c(OCCOc4ccc([N+](=O)[O-])cc4)cccc3c2O1
### Response 16

### Prompt Please answer likewise for N=C(N)NCCC[C@H](NC(=O)[C@@H](N)Cc1ccccc1)C(=O)Nc1ccc2ccccc2c1 [PABETAN] (HELM PEPTIDE1{F.R.[c1ccc2cc(N[*:1])ccc2c1]}$$$$V2.0)
### Response 2

### Prompt Please answer likewise for CC1(C)CCc2c(C(=O)N3CCOCC3)cc3c(OCCN4CCN(c5ccccc5)CC4)cccc3c2O1
### Response 16

### Prompt Please answer likewise for CC1(C)CCc2c(C(=O)N3CCOCC3)cc3c(OCCSc4ccc([N+](=O)[O-])cc4)cccc3c2O1
### Response 16

### Prompt Please answer likewise for CC1(C)CCc2c(C(=O)N3CCOCC3)cc3c(OCCCSc4ccc(N)cc4)cccc3c2O1
### Response 64

Data provenance is ChEMBL document CHEMBL5346892.
